Data provenance is paper PMC7415619.

System: Mtb H37Rv
Assay: Minimum inhibitory concentration, broth microdilution, whole-cell activity
Format: cell-based, Mycobacterium tuberculosis
Conditions: Mtb H37Rv, GAST medium; MIC = >99% inhibition of cell growth
experimentalReadout: MIC GAST

>  <compound>
CCCCCCCCCCCC(=O)NS(=O)(=O)OC[C@H]1O[C@@H](n2cnc3c(N)ncnc32)[C@H](O)[C@@H]1O [Compound 9, 5′-O-[N-(Dodecanoyl)sulfamoyl]adenosine]

>  <experimentalReadout>
MIC GAST

>  <testResult>
0.19 to 0.39 µM

$$$$
>  <compound>
CCCCCCCCCOCC(=O)NS(=O)(=O)OC[C@H]1O[C@@H](n2cnc3c(N)ncnc32)[C@H](O)[C@@H]1O

>  <experimentalReadout>
MIC GAST

>  <testResult>
0.098 to 0.19 µM

$$$$
>  <compound>
[N-]=[N+]=NCCCCCCCCCCCC(=O)NS(=O)(=O)OC[C@H]1O[C@@H](n2cnc3c(N)ncnc32)[C@H](O)[C@@H]1O

>  <experimentalReadout>
MIC GAST

>  <testResult>
0.098 to 3.13 µM

$$$$
>  <compound>
COC(=O)CCCCCCCCCCC(=O)NS(=O)(=O)OC[C@H]1O[C@@H](n2cnc3c(N)ncnc32)[C@H](O)[C@@H]1O

>  <experimentalReadout>
MIC GAST

>  <testResult>
3.13 µM

$$$$
